- experimentalDetails: HepG2 liver cancer cell viability effects, profiling panel, resazurin fluorescence, 24 h, PK04 Diversity Set (AID 1172); further: test concentration not given here
- testSettings: higher = more signal
Class 1: z-score at least -0.2. Class 0: z-score below -0.2.

[N-]=[N+]=NCc1ccccc1[C@H]1OC(c2ccc(OCCCO)cc2)=N[C@@]1(CCS(=O)(=O)c1ccccc1)C(=O)NCCN1CCOCC1; 1
COC(=O)[C@@]1(Cc2ccc(OC)cc2)[C@H]2c3cc(C(=O)N(C)C)n(Cc4c(CO)[nH]cc(C)c4=O)c3C[C@H]2CN1C(=O)c1ccccc1; 0
Cc1c(NC(=O)/C(C#N)=C/C=C/c2ccc([N+](=O)[O-])cc2)c(=O)n(-c2ccccc2)n1C; 0

input: In plain terms: is recorded z-score at least -0.2 for "CCOC(=O)C[C@H]1[C@H](OC(=O)Cc2ccc3c(c2)OCO3)[C@@H](NC(=O)CC(C)C)c2cc(OCCCO)ccc2N1C(=O)c1ccc2ccccc2n1" ?
output: 1

input: In plain terms: is recorded z-score at least -0.2 for O=C1C2C=CC(C(O)C3CC=CCC3)N(Nc3ccc([N+](=O)[O-])cc3)C2C(=O)N1c1ccccc1 (configuration not stated) ?
output: 0

input: In plain terms: is recorded z-score at least -0.2 for "COc1ccc(C#Cc2ccc3c(c2)[C@]2(C(=O)N3)[C@H](c3ccccc3OCCO)N3[C@H](c4ccccc4)[C@H](c4ccccc4)OC(=O)[C@H]3[C@@H]2C(=O)NC[C@H](O)c2ccccc2)cc1" ?
output: 1

input: In plain terms: is recorded z-score at least -0.2 for "CCOC(=O)C=C1C[C@@H](c2cccc([N+](=O)[O-])c2)O[C@@H](c2cccc([N+](=O)[O-])c2)O1" ?
output: 1

###

- Tested on: Fibrinogen (Alexa647-labelled)
- experimentalDetails: fibrinogen binders on compound microarrays, profiling panel, artefact control for SMM control-protein annotation, biochemical, small-molecule microarray, 635/667 nm fluorescence (AID 1131);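 further: z-score merges 667 nm fluorescence with per-spot signal-to-noise over triplicate slides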
- testSettings: fibrinogen-A647 binding fluorescence, higher = more signal
propertyLabel: composite z-score
Lab note: record the figure alone, no unit after it.

// below: answered molecules
CS(=O)(=O)CCOC(=O)C1=CC(CCCO)=CC(C2CC2)N(Cc2sc3ccccc3c2Cl)C=C1C(=O)OCCS(C)(=O)=O (stereo not drawn); 0.753
Cc1cccc([C@H]2C[C@H]3C(Br)=C[C@@]2(CO)C(=O)[C@]32CO2)c1; -1.05
C=CC[C@H](OC(=O)Nc1ccc(SC)cc1)c1ccc(O)c(F)c1; -0.0381
O=C1C2C=CC(C(O)C3CCCCC3)N(Nc3ccccc3F)C2C(=O)N1c1ccccc1 (stereo not drawn); 1.01
COc1cc(Cc2cc3c(c(-c4ccccc4)n2)[Si](C(C)C)(C(C)C)OC3)cc(OC)c1OC; 0.107

// sample "C=CC[C@]1(C(N)=O)N=C(c2ccc(OCCCO)cc2)O[C@H]1c1ccccc1N=[N+]=[N-]" , its composite z-score was 0.753

// sample "CCOC(=O)C[C@H]1[C@H](OC(=O)c2ccc(-c3ccccc3)cc2)[C@@H](NC(=O)C2CCCCC2)c2cc(OCCCO)ccc2N1C(=O)Cc1ccc(OC)cc1" , its composite z-score was 0.267

// sample "COC(=O)[C@]1(Cc2ccccc2CN=[N+]=[N-])N=C(c2ccc(OCCCO)cc2)O[C@@H]1c1ccccc1N=[N+]=[N-]" , its composite z-score was -0.0222

###

composite z-score: recorded values
- targetSystem: Epidermal growth factor receptor (Homo sapiens)
- experimentalDetails: EGFR binders on small-molecule microarrays, primary screen, biochemical, small-molecule microarray, 635 nm fluorescence (AID 1104);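 further: score merges 667 nm emission intensity with spot signal to noise over triplicate slides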
- testSettings: EGFR binding, higher = more signal
Lab note: record the figure alone, no unit after it.

COc1ccc([Si](C)(C)[C@H]2[C@H](CC(=O)N3CCC[C@H]3CO)O[C@@]3(C(=O)N(C)c4ccccc43)[C@@H]2C)cc1; 0.335
N#Cc1ccc(NN2C(C(O)c3ccc(B(O)O)cc3)C=CC3CN(c4ccccc4)C(=O)C32)cc1 (stereo unspecified); -0.533
C=C(CCCC)/C(=C/C[C@@H](OC(C)=O)c1ccc(OCCO)cc1)c1cc(C(=O)OC)ccc1OC; -0.597
CCOC(=O)C1=CC[C@@H](c2ccccc2)N(S(=O)(=O)c2ccc(C)cc2)[C@@H]1C#N; -0.181
C[C@]1(C(=O)NCC(F)(F)F)c2ccccc2C(=O)N(Cc2cc(C(F)(F)F)cc(C(F)(F)F)c2)[C@H]1c1ccc(CO)cc1; -0.654
[N-]=[N+]=NCc1ccccc1[C@H]1OC(c2ccc(OCCCO)cc2)=N[C@@]1(CCS(=O)(=O)c1ccccc1)C(=O)O; -0.371

// sample CN1C(=O)C2C(C1=O)C1C=C(CCCO)C2C(C2CC2)N1C (stereo unspecified) , its composite z-score was 0.0501

// sample "COc1ccc(CCNC(=O)[C@@]2(C)c3ccccc3C(=O)N(Cc3ccc(OC(F)(F)F)cc3)[C@H]2c2ccc(CO)cc2)cc1" , its composite z-score was 0.743

// sample "[N-]=[N+]=Nc1ccccc1C[C@]1(C(N)=O)COC(c2ccc(OCCCO)cc2)=N1" , its composite z-score was -0.969

###

- experimentalDetails: HepG2 cell viability effects, profiling panel, calcein-AM fluorescence, 48 h, basal (AID 1164); further: test concentration not given here
- testSettings: higher = more signal
z-score: recorded values
Lab note: record the figure alone, no unit after it.

// below: answered compounds
O=C1O[C@H](c2ccccc2)[C@H](c2ccccc2)N2[C@H]1[C@@H](C(=O)O)[C@]1(C(=O)Nc3ccc(C#CC4(O)CCCCCC4)cc31)[C@H]2c1ccccc1OCCO; -0.0165
CCOC(=O)C1=CC[C@@H](c2ccccc2)N(S(=O)(=O)c2ccc(C)cc2)[C@@H]1C#N; 0.278
COC(=O)C(CC#Cc1ccc2c(c1)[C@]1(C(=O)N2)[C@H](C(N)=O)[C@H]2C(=O)O[C@H](c3ccccc3)[C@H](c3ccccc3)N2[C@@H]1c1ccccc1OCCO)C(=O)OC; -4.23
CC[C@@H]1C=C(C(=O)O)[C@H](c2cccc(Cl)c2)N1S(=O)(=O)c1ccc(C)cc1; 0.223
O=C(NCCN1CCOCC1)[C@@H]1c2ccccc2C(=O)N(CC23CC4CC(CC(C4)C2)C3)[C@H]1c1ccc(CO)cc1; 0.45

// sample "C=CCOC(=O)[C@H]1[C@@H]2C(=O)O[C@@H](c3ccccc3)[C@@H](c3ccccc3)N2[C@@H](c2ccc(OCCOC(=O)[C@H]3C[C@H]4C(=O)NCC(=O)N4[C@H]3c3cccc(OCCO)c3)cc2)[C@]12C(=O)Nc1ccc(I)cc12" , its z-score was 0.902

// sample COC(=O)C1(CC(C)C)C=C2C(=C(C)C(=O)C2C)CN1 (stereo unspecified) , its z-score was -1.14

// sample "C[C@]1(C(=O)NC2CC2)c2ccccc2C(=O)N(Cc2cc(F)cc(C(F)(F)F)c2)[C@H]1c1ccc(CO)cc1" , its z-score was 0.0046

###

composite z-score: recorded values
- targetSystem: Torsin-1A (Homo sapiens)
- experimentalDetails: small-molecule binders of mutant TOR1A in lysate, primary screen, cell lysate, small-molecule microarray, COS7 lysate, 635/667 nm fluorescence (AID 1150);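 further: score pools 667 nm emission and signal to noise measuring lysate protein binding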
- testSettings: COS7 hTOR1A mutant lysate, 635 nm fluorescence, higher = more signal
Lab note: record the figure alone, no unit after it.

// below: answered molecules
COc1cccc(C)c1NC(=O)O[C@H]1[C@H](OC(=O)Nc2ccccc2)[C@@H](OC(=O)Nc2ccccc2)[C@@H](OC)O[C@@H]1CO; 0.958
COCCOC(=O)N1C(=O)[C@@]2(c3cc(C#CC4=CCCCC4)ccc31)[C@H](C(=O)N1CCCCCCC1)[C@H]1C(=O)O[C@H](c3ccccc3)[C@H](c3ccccc3)N1[C@@H]2c1ccccc1OCCO; 0.824
O=C1O[C@H](c2ccccc2)[C@H](c2ccccc2)N2[C@H]1[C@@H](C(=O)O)[C@]1(C(=O)Nc3ccc(C#CC4(O)CCCCCC4)cc31)[C@H]2c1ccccc1OCCO; -0.462
COC(=O)[C@@]1(Cc2ccccc2)[C@H]2c3cc(C(=O)N(C)C)n(Cc4ccc(Cl)c(C(F)(F)F)c4)c3C[C@H]2CN1C(=O)c1ccccc1; 0.0947

Next item in the queue.
// sample "COCCOC(=O)N1C(=O)[C@@]2(c3cc(C#CCNC(N)=O)ccc31)[C@H](C(=O)N1CCN(c3ncccn3)CC1)[C@H]1C(=O)O[C@H](c3ccccc3)[C@H](c3ccccc3)N1[C@@H]2c1ccc(O)cc1" , its composite z-score was -0.859

###

z-score: recorded values
- experimentalDetails: mitochondrial membrane potential change in A549 cells, profiling panel, cell-based, JC-1 fluorescence, basal, 24 h, 100 nL (AID 1138);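 further: A549 lung adenocarcinoma cells under basal conditions with no added stimulus; test concentration not given here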
- testSettings: higher = more signal
Lab note: record the figure alone, no unit after it.

// below: answered compounds
CCc1cccc(NC(=O)O[C@H]2[C@H](OC(=O)Nc3ccccc3-c3ccccc3)[C@H](OC(=O)Nc3ccccc3-c3ccccc3)[C@@H](OC)O[C@@H]2CO)c1; -1.35
CC(C)Cc1ccc(CN2CC[C@@H](NC(=O)c3ccccc3)C2)cc1; 1.81

// sample CC1C2C(CCCO)=CC(C3C(=O)N(C(N)=O)C(=O)C23)N1Cc1cccc(OC(F)(F)F)c1 (centres undefined) , its z-score was -0.341

// sample "C=CC[C@H](OC(=O)Nc1ccc(SC)cc1)c1ccc(O)c(F)c1" , its z-score was -1.34
